Target: UniProt P06241
Sequence (P06241 whole entry): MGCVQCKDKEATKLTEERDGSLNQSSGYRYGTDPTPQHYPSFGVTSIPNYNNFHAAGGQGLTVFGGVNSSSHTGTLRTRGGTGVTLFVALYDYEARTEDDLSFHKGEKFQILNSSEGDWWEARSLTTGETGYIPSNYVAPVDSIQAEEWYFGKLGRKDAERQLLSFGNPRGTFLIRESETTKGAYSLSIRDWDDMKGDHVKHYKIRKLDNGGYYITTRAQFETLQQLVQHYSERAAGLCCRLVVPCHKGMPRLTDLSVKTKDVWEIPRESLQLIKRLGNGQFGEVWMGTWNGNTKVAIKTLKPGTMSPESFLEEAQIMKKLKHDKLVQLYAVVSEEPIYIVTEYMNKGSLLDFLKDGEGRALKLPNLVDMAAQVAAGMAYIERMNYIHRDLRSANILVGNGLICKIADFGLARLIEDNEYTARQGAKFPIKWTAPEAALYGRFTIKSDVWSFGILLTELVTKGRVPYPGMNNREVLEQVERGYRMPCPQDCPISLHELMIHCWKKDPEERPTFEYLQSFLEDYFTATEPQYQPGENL
Experiment: FYNα kinase assay, LANCE Ultra TR-FRET
Format: biochemical
Details: 50 μM; mean ± SD; n.i. = no inhibition; read-out: Fyn % Inhibition @ 50 μM
Mark 1.0 for reported inhibition at 50 µM of 40% or greater; mark 0.0 for anything smaller.

ITEM SMILES	ASSIGNED LABEL
COCCNc1nc(-c2c[nH]c3ncccc23)cs1	1.0
CNc1nc(-c2c[nH]c3ncccc23)cs1	0.0
Nc1ccc(Nc2nc(-c3c[nH]c4ncccc34)cs2)cc1	1.0
Nc1nc(-c2c[nH]c3ncccc23)cs1	1.0
c1ccc(Nc2nc(-c3c[nH]c4ncccc34)cs2)nc1	0.0

INPUT: Evaluate `CN(C)c1ccc(Nc2nc(-c3c[nH]c4ncccc34)cs2)cc1` : inhibition at 50 µM at minimum 40%?
OUTPUT: 0.0

INPUT: Evaluate `C=CCNc1nc(-c2c[nH]c3ncccc23)cs1` : inhibition at 50 µM at minimum 40%?
OUTPUT: 0.0

INPUT: Evaluate `Clc1ccccc1Nc1nc(-c2c[nH]c3ncccc23)cs1` : inhibition at 50 µM at minimum 40%?
OUTPUT: 1.0

The reported measurements were obtained from paper PMC12406253.
